FGFR3 (Homo sapiens) IC50 data
Sequence (P22607 23-806): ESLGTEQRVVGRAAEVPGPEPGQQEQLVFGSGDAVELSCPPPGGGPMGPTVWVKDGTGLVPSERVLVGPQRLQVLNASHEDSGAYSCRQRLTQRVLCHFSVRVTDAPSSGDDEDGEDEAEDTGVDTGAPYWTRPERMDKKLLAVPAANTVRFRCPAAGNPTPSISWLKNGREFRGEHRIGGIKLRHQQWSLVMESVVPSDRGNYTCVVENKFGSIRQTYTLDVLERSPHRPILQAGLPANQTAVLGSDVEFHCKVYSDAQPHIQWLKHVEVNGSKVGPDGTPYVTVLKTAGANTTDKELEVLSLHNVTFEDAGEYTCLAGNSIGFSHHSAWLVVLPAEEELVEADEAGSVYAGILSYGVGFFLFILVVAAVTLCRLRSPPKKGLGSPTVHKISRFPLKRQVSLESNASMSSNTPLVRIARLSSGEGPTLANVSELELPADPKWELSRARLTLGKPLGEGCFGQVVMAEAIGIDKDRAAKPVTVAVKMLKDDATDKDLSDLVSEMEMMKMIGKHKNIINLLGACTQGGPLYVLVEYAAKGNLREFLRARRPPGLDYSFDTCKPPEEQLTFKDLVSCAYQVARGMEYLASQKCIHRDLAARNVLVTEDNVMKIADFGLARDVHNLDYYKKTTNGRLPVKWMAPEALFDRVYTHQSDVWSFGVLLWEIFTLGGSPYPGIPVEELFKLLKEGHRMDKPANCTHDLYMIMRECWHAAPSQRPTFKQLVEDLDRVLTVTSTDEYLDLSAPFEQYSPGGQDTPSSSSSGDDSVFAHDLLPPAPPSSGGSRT

| Molecule | IC50 |
| --- | --- |
| COc1cc(OC)c(Cl)c(-c2cc3[nH]nc(-c4ccc5c(c4)N(C)C(=O)CO5)c3cn2)c1Cl | < 100 nM |
| COc1cc(OC)c(Cl)c(-c2cc3[nH]nc(-c4ccc5c(c4)CN(C4CC4)C5=O)c3cn2)c1Cl | < 100 nM |
| COc1cc(OC)c(F)c(-c2ncc3c(-c4ccc5c(c4)CCN(S(C)(=O)=O)C5)n[nH]c3n2)c1F | < 100 nM |
| COc1cc(OC)c(F)c(-c2cc3[nH]nc(-c4cnn(C)c4)c3cn2)c1F | < 100 nM |

stdin: What reported IC50 corresponds to COc1cc(OC)c(F)c(-c2cc3[nH]nc(-c4ccc5c(c4)CN(CC(C)O)C5=O)c3cn2)c1F (centres unmarked) on FGFR3 (Homo sapiens)?
stdout: < 100 nM

stdin: Query the reported IC50 for FGFR3 (Homo sapiens); item: COc1cc(OC)c(F)c(-c2ccc3c(-c4cnn(C)c4)n[nH]c3n2)c1F
stdout: < 100 nM

stdin: Notebook entry, FGFR3 (Homo sapiens) assay: IC50 of COc1cc(OC)c(F)c(-c2ncc3c(-c4ccc5c(c4)CN(CC(C)O)C5=O)n[nH]c3n2)c1F (centres unmarked) = ?
stdout: < 100 nM

stdin: What is its IC50 for FGFR3 (Homo sapiens)? Entry: COc1cc(OC)c(F)c(-c2ncc3c(-c4ccc5c(c4)CCC(C(=O)N(C)C)O5)n[nH]c3n2)c1F (centres unmarked)
stdout: < 100 nM

----------
Property: IC50; scope: individual molecules
Target: FGFR3 (Homo sapiens)

stdin: Name the recorded IC50 for COc1cc(OC)c(F)c(-c2cc3[nH]nc(-c4ccc5c(c4)CC(C(=O)N(C)C)O5)c3cn2)c1F (single isomer, unassigned) [Example 83] .
stdout: < 100 nM

stdin: GET /values?readout=IC50&item= COCCN1Cc2cc(-c3n[nH]c4cc(-c5c(F)c(OC)cc(OC)c5F)ncc34)ccc2C1=O [Example 58]
stdout: < 100 nM

stdin: Tell me the measured IC50 of COc1cc(OC)c(F)c(-c2ncc3c(-c4ccc5c(c4)CC(C(=O)N(C)C)O5)n[nH]c3n2)c1F (stereo not shown) [Example 3] , please.
stdout: < 100 nM

stdin: Please look up its IC50: CCN1Cc2cc(-c3n[nH]c4cc(-c5c(F)c(OC)cc(OC)c5F)ncc34)cnc2C1=O [Example 55]
stdout: < 100 nM

stdin: # input molecule: COc1cc(OC)c(Cl)c(-c2cc3[nH]nc(-c4cnn(C[C@H](C)O)c4)c3cn2)c1Cl [Example 51] ; wanted: its IC50
stdout: < 100 nM

stdin: Look up IC50: COc1cc(OC)c(Cl)c(-c2cnc3c(-c4cnn(C)c4)n[nH]c3c2)c1Cl [Example 70]
stdout: < 100 nM

stdin: Recorded IC50 of COc1cc(OC)c(Cl)c(-c2cc3[nH]nc(-c4cnn(CC(=O)N5CCOCC5)c4)c3cn2)c1Cl [Example 40] , please.
stdout: < 100 nM

----------
Target: UniProt P11362
Sequence (P11362 22-822): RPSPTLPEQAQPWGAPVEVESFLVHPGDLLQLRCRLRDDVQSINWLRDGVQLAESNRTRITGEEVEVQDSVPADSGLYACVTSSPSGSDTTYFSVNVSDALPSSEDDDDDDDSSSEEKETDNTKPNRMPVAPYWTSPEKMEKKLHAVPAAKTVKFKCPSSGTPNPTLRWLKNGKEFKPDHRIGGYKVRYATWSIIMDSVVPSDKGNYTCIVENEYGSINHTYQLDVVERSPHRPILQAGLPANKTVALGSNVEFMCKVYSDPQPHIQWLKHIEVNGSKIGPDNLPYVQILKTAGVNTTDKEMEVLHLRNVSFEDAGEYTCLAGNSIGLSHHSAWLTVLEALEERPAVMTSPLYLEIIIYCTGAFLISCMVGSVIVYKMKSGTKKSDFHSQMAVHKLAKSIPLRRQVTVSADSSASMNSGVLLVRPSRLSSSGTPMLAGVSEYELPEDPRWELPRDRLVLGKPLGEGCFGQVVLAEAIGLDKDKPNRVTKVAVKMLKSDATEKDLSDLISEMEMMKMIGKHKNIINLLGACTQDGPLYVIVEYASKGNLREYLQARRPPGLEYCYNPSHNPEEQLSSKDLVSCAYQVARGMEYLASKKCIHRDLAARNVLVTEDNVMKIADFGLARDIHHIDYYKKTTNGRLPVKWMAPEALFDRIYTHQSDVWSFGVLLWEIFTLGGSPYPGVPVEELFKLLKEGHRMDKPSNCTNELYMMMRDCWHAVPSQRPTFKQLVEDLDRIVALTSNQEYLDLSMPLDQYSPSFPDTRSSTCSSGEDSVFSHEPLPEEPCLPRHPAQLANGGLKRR
pIC50: −log10 of the molar value.
# reported pIC50; entries follow

Some molecules with recorded pIC50:
| Molecule | pIC50 |
| --- | --- |
| COc1ccc(C#Cc2n[nH]c3nc(-c4c(F)c(OC)cc(OC)c4F)ncc23)cc1 | > 7.00 |
| COc1cc(OC)c(Cl)c(-c2ncc3c(-c4ccc5c(c4)CN([C@H]4CC[C@H](O)CC4)C5=O)n[nH]c3n2)c1Cl | > 7.00 |
| COc1cc(OC)c(F)c(-c2ncc3c(-c4ccc5c(c4)CC(C(=O)N(C)C)O5)n[nH]c3n2)c1F (single isomer, unassigned) [Example 4] | > 7.00 |
| COc1cc(OC)c(F)c(-c2cc3[nH]nc(-c4ccc5c(c4)CC(C(=O)N(C)C)O5)c3cn2)c1F (single isomer, unassigned) | > 7.00 |

stdin: What value of measured pIC50 is listed for COc1cc(OC)c(Cl)c(-c2cc3[nH]nc(-c4cnn(CC(=O)N(C)C)c4)c3cn2)c1Cl ?
stdout: > 7.00

stdin: Record request: pIC50 value, item COc1cc(OC)c(F)c(-c2cc3[nH]nc(-c4ccnc(N5CCN(C)CC5)c4)c3cn2)c1F
stdout: > 7.00

stdin: Fill in: pIC50 of COc1cc(OC)c(Cl)c(-c2cc3[nH]nc(/C=C/c4cnn(CCO)c4)c3cn2)c1Cl is ___
stdout: > 7.00

----------
Target: FGFR3 (Homo sapiens)
Items are presented alongside their recorded IC50.

# annotated cases, reported IC50 shown
| Molecule | IC50 |
| --- | --- |
| COc1cc(OC)c(F)c(-c2cc3[nH]nc(-c4ccc5c(c4)CN([C@H]4CC[C@@H](O)CC4)C5=O)c3cn2)c1F | < 100 nM |
| COc1cc(OC)c(F)c(-c2cc3[nH]nc(-c4ccc5c(c4)CN(CC(F)(F)F)C5=O)c3cn2)c1F | < 100 nM |
| CCN1Cc2cc(-c3n[nH]c4nc(-c5c(Cl)c(OC)cc(OC)c5Cl)ncc34)cnc2C1=O | < 100 nM |

stdin: Enter reported IC50 observed with FGFR3 (Homo sapiens) for COc1cc(OC)c(F)c(-c2cc3[nH]nc(-c4ccc5c(c4)CN(C(C)CO)C5=O)c3cn2)c1F (stereo not shown)
stdout: < 100 nM
